Entry source: ChEMBL document CHEMBL5214988

- Measurement notes: Observed clearance in ICR mouse at 2 mg/kg, iv measured upto 24 hrs by LC-MS/MS analysis
- Type: ADME, organism-based
- Stated conditions: in vivo
Measured metric: clearance (mL/min/kg)
Give bare numbers, in mL/min/kg.

Form field clearance, entry `C[C@@H](Oc1cc(NC(=O)c2cn(CCN3CCOCC3)c3cc(Br)c(C=O)nc23)ncc1C#N)c1c(Cl)cncc1Cl` : 49.7

----------
- Measurement notes: AUC (0 to t) in ICR mouse at 10 mg/kg, po measured upto 24 hrs by LC-MS/MS analysis
- Type: ADME, organism-based
- Set-up: dose 10 mg/kg, time < 24 hrs, route po
- Stated conditions: in vivo
Measured metric: AUC(0-t) at 24 h (ng·h/mL)
One number for each entry, in ng·h/mL.

Form field AUC(0-t) at 24 h, entry `C[C@@H](Oc1cc(NC(=O)c2cn(CCN3CCOCC3)c3cc(Br)c(C=O)nc23)ncc1C#N)c1c(Cl)cncc1Cl` : 29.5

----------
- Measurement notes: AUC (0 to infinity) in ICR mouse at 2 mg/kg, iv measured upto 24 hrs by LC-MS/MS analysis
- Assay type: ADME, organism-based
- Set-up: time < 24 hrs, dose 2 mg/kg, route iv
- Stated conditions: in vivo
Measured metric: AUC(0-inf) (ng·h/mL)
Answers are plain numbers, in ng·h/mL.

Form field AUC(0-inf), entry `C[C@@H](Oc1cc(NC(=O)c2cn(CCN3CCOCC3)c3cc(Br)c(C=O)nc23)ncc1C#N)c1c(Cl)cncc1Cl` : 704

----------
- Measurement notes: AUC (0 to infinity) in ICR mouse at 10 mg/kg, po measured upto 24 hrs by LC-MS/MS analysis
- Assay type: ADME, organism-based
- Design: time < 24 hrs, dose 10 mg/kg, route po
- Stated conditions: in vivo
Measured metric: AUC(0-inf) (ng·h/mL)
Answers are plain numbers, in ng·h/mL.

Form field AUC(0-inf), entry `C[C@@H](Oc1cc(NC(=O)c2cn(CCN3CCOCC3)c3cc(Br)c(C=O)nc23)ncc1C#N)c1c(Cl)cncc1Cl` : 38.6

----------
- Measurement notes: Cmax in ICR mouse at 2 mg/kg, iv measured upto 24 hrs by LC-MS/MS analysis
- Format: ADME, organism-based
- Parameters: time < 24 hrs, dose 2 mg/kg, route iv
- Stated conditions: in vivo
Measured metric: Cmax (ng/mL)
Numbers only, in ng/mL.

Form field Cmax, entry `C[C@@H](Oc1cc(NC(=O)c2cn(CCN3CCOCC3)c3cc(Br)c(C=O)nc23)ncc1C#N)c1c(Cl)cncc1Cl` : 1640

----------
- Measurement notes: Tmax in ICR mouse at 10 mg/kg, po measured upto 24 hrs by LC-MS/MS analysis
- Type: ADME, organism-based
- Stated conditions: in vivo
Measured metric: Tmax (min)
One number for each entry, in min.

Form field Tmax, entry `C[C@@H](Oc1cc(NC(=O)c2cn(CCN3CCOCC3)c3cc(Br)c(C=O)nc23)ncc1C#N)c1c(Cl)cncc1Cl` : 23.4

----------
- Measurement notes: MRT (0 to t) in ICR mouse at 10 mg/kg, po measured upto 24 hrs by LC-MS/MS analysis
- Assay type: ADME, organism-based
- Stated conditions: in vivo
Measured metric: MRT last at 24 h (h)
Give bare numbers, in h.

Form field MRT last at 24 h, entry `C[C@@H](Oc1cc(NC(=O)c2cn(CCN3CCOCC3)c3cc(Br)c(C=O)nc23)ncc1C#N)c1c(Cl)cncc1Cl` : 1.73
